- assay_name: pharmacokinetics of MNA in rat plasma after single intragastric administration
- Type: in vivo, rats
- stated_conditions: po; MNA in rat plasma, single intragastric administration, 100 mg/kg; read-out: Cmax

compound: C[n+]1cccc(C(N)=O)c1.[Cl-] [MNACl, 3-carbamoyl-1-methylpyridinium chloride, reference compound]
Cmax / ng/mL: 2810

###

- assay_name: pharmacokinetics of MNA in rat plasma after single intravenous administration
- Assay type: in vivo, rats
- stated_conditions: 100 mg/kg, read-out: Vss
- Description: A method using high performance liquid chromatography combined with tandem mass spectrometry (LC/ESI-MS/MS) was developed and validated to determine concentrations of 1-methylnicotinamide (MNA) in rat plasma. […] The pharmacokinetic parameters were determined by a non-compartmental model using Phoenix WinNonlin software (Pharsight, Sannyvale, CA, USA).
measured_property: Vd (L/kg)

compound: C[n+]1cccc(C(N)=O)c1.[Cl-] [MNACl, 3-carbamoyl-1-methylpyridinium chloride, reference compound]
number: 1.06

###

- assay_name: pharmacokinetics of MNA in rat plasma after single intravenous administration
- Format: in vivo, rats
- stated_conditions: rat, plasma, iv, 100 mg/kg

compound: C[n+]1cccc(C(N)=O)c1.[Cl-] [MNACl, 3-carbamoyl-1-methylpyridinium chloride, reference compound]
MRT: ~43 min

###

- assay_name: pharmacokinetics of MNA in rat plasma after single intravenous administration
- Assay type: in vivo, rats
- stated_conditions: 100 mg/kg
measured_property: clearance (mL/min/kg)

compound: C[n+]1cccc(C(N)=O)c1.[Cl-] [MNACl, 3-carbamoyl-1-methylpyridinium chloride, reference compound]
number: 24

Attribution: patent EP3008041B1
